Biological target: T1, Formyl-Peptide Receptor 1 (UniProt P21462 1-350, limits assumed)
T1 sequence (looked up): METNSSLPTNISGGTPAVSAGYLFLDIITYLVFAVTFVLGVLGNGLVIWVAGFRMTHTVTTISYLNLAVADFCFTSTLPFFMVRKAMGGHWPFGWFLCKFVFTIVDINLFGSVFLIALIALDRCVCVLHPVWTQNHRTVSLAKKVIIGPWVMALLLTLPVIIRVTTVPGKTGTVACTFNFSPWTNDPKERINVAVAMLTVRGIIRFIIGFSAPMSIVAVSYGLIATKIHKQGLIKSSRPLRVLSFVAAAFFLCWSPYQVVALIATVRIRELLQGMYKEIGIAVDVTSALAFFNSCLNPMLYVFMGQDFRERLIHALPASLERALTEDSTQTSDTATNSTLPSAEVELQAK
Assay: cell-based or functional assay
Bridges are numbered along the chain shown (N, C = ends). [ ]: non-standard residue; d: D form. Dap = NC[C@H](N)C(=O)O
We use 100 nM as the dividing line for β-Arrestin IC50: on or above the line is Yes, below is No.

Observe how each entry below is paired with its result.
>>> answer_label("cyclo(YHACWG[dP]WTICYQK[dP]E) (disulfide 4-11; SMILES CC[C@H](C)[C@@H]1NC(=O)[C@H]([C@@H](C)O)NC(=O)[C@H](Cc2c[nH]c3ccccc23)NC(=O)[C@H]2CCCN2C(=O)CNC(=O)[C@H](Cc2c[nH]c3ccccc23)NC(=O)[C@@H]2CSSC[C@H](NC1=O)C(=O)N[C@@H](Cc1ccc(O)cc1)C(=O)N[C@@H](CCC(N)=O)C(=O)N[C@@H](CCCCN)C(=O)N1CCC[C@@H]1C(=O)N[C@@H](CCC(=O)O)C(=O)N[C@@H](Cc1ccc(O)cc1)C(=O)N[C@@H](Cc1c[nH]cn1)C(=O)N[C@@H](C)C(=O)N2) [cyclo(-Tyr-His-Ala-Cys-Trp-Gly-^DPro-Trp-Thr-Ile-Cys-Tyr-Gln-Lys-^DPro-Glu-)]")
"No"
>>> answer_label("cyclo(YHKCHG[dP]WTICYEG[dP]P) (disulfide 4-11; SMILES CC[C@H](C)[C@@H]1NC(=O)[C@H]([C@@H](C)O)NC(=O)[C@H](Cc2c[nH]c3ccccc23)NC(=O)[C@H]2CCCN2C(=O)CNC(=O)[C@H](Cc2c[nH]cn2)NC(=O)[C@@H]2CSSC[C@H](NC1=O)C(=O)N[C@@H](Cc1ccc(O)cc1)C(=O)N[C@@H](CCC(=O)O)C(=O)NCC(=O)N1CCC[C@@H]1C(=O)N1CCC[C@H]1C(=O)N[C@@H](Cc1ccc(O)cc1)C(=O)N[C@@H](Cc1c[nH]cn1)C(=O)N[C@@H](CCCCN)C(=O)N2) [cyclo(-Tyr-His-Lys-Cys-His-Gly-^DPro-Trp-Thr-Ile-Cys-Tyr-Glu-Gly-^DPro-Pro-)]")
"Yes"
>>> answer_label("cyclo(YHKCHG[dP]WTICYWK[dP]P) (disulfide 4-11; SMILES CC[C@H](C)[C@@H]1NC(=O)[C@H]([C@@H](C)O)NC(=O)[C@H](Cc2c[nH]c3ccccc23)NC(=O)[C@H]2CCCN2C(=O)CNC(=O)[C@H](Cc2c[nH]cn2)NC(=O)[C@@H]2CSSC[C@H](NC1=O)C(=O)N[C@@H](Cc1ccc(O)cc1)C(=O)N[C@@H](Cc1c[nH]c3ccccc13)C(=O)N[C@@H](CCCCN)C(=O)N1CCC[C@@H]1C(=O)N1CCC[C@H]1C(=O)N[C@@H](Cc1ccc(O)cc1)C(=O)N[C@@H](Cc1c[nH]cn1)C(=O)N[C@@H](CCCCN)C(=O)N2) [cyclo(-Tyr-His-Lys-Cys-His-Gly-^DPro-Trp-Thr-Ile-Cys-Tyr-Trp-Lys-^DPro-Pro-)]")
"No"

Lab note: next binder to report on.
hey, is β-Arrestin IC50 for this one >= 100 nM? cyclo(YH[Dap]CHG[dP]WTICYEK[dP]P) (disulfide 4-11) [cyclo(-Tyr-His-Dap-Cys-His-Gly-^DPro-Trp-Thr-Ile-Cys-Tyr-Glu-Lys-^DPro-Pro-)]
Yes
